# Assayed target: T1, cynoPD-1 His (AcroBiosystems PD1-C5223) (cynomolgus monkey, UniProt B0LAJ3 25-170)
# T1 construct: also called cPD-1; cynomolgus PD-1 His-tagged
# T1 sequence (B0LAJ3 entry or part of it limits assumed): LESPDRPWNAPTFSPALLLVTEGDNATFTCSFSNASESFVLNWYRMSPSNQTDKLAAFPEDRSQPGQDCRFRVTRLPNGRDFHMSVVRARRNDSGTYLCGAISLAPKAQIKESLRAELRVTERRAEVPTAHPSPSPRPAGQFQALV
# Assay method text: SPR, Ab captured, PD-1 analyte
Kindly supply the reported kon values for the records listed here.
Use M⁻¹ s⁻¹ as the unit, but write only the number.

query: Dear colleague, I am looking for the recorded kon of the following binder: z3-XVT458 (antibody, human IgG1, kappa, V domains shown, hIgG1; numbering as for z1; also called GH + T073K) VH: QVQLVQSGAEVKKPGASVKVSCKASGYTFTNFYIHWVRQAPGQGLEWMGSIYPNYGDTAYNQKFKDRVTMTTDKSTSTAYMELRSLRSDDTAVYYCARGYSYAMDYWGQGTTVTVSS VL: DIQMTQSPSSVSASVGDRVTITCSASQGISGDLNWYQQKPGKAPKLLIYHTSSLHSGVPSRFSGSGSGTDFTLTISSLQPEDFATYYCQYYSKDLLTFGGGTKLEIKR
result: 57400

query: If you can, please state the reported kon value of z4-XVT458 (antibody, human IgG1, kappa, V domains shown, hIgG1; numbering as for z1; also called GH + V067A + T071V) VH: QVQLVQSGAEVKKPGASVKVSCKASGYTFTNFYIHWVRQAPGQGLEWMGSIYPNYGDTAYNQKFKDRATMTVDTSTSTAYMELRSLRSDDTAVYYCARGYSYAMDYWGQGTTVTVSS VL: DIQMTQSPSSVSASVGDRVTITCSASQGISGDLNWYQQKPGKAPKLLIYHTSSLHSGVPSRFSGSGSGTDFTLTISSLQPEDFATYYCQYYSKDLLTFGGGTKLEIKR .
result: 63300

query: Could you share which kon value was measured for z1-XVT458 (antibody, human IgG1, kappa, V domains shown, hIgG1; also called GH + V067A) VH: QVQLVQSGAEVKKPGASVKVSCKASGYTFTNFYIHWVRQAPGQGLEWMGSIYPNYGDTAYNQKFKDRATMTTDTSTSTAYMELRSLRSDDTAVYYCARGYSYAMDYWGQGTTVTVSS VL: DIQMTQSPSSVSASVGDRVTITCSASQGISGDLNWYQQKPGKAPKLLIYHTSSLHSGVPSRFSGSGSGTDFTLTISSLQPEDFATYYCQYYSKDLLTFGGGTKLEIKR ?
result: 62700
